The entries below are paired with their reported protein stability index.
B1: ZNF263 (parent)
chain: CSECGESFSRSSRLMSHQRTHTG

Variants of: B1
experimentalProtocol: protein stability index of a GFP-peptide fusion (GPS, HEK-293T) (PSI 1-6); higher = more stable;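 note: lentivirally expressed fusions sorted by FACS into six bins by GFP to DsRed ratio, PSI derived from sequencing read proportions per bin multiplied by bin number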
condition: c terminus: native
Write the number on its own, no unit after it.

> print(dat)
   mutant          measurementname  result
1    H17I  protein stability index     3.2
2     C4M  protein stability index    1.85
3    R10T  protein stability index    5.16
4     E6W  protein stability index    2.02
5     S9C  protein stability index    2.35

INPUT: Provide only the value of recorded protein stability index for S11Y
OUTPUT: 3.67

INPUT: Provide only the value of recorded protein stability index for H17E
OUTPUT: 2.38

INPUT: Provide only the value of recorded protein stability index for C4P
OUTPUT: 1.51

INPUT: Provide only the value of recorded protein stability index for E3K
OUTPUT: 2.68

INPUT: Provide only the value of recorded protein stability index for C4D
OUTPUT: 2.31

INPUT: Provide only the value of recorded protein stability index for R13L
OUTPUT: 4.84
